- assayedSystem: phospho p-38 alpha kinase (Homo sapiens)
- Construct: purchased Panvera
- testSummary: P-38 alpha kinase assay (spectrophotometric, pyruvate kinase/lactate dehydrogenase coupled)
- Assay type: biochemical
- conditionNotes: Table 5; assay not named; read-out: uM
measurementKind: IC50 (µM)

Example entries begin here.
CCOC(=O)c1ccc(-n2nc(C(C)C)cc2NC(=O)Nc2ccc(Cl)cc2)cc1    2.2
COc1cccc(NC(=O)Nc2cc(C(C)(C)C)nn2-c2cccc(CO)c2)c1    0.058
Cc1cc(NC(=O)Nc2ccc(Cl)cc2)n(-c2ccc(CO)cc2)n1    0.27
CC(C)(C)c1cc(NC(=O)Nc2cccc(Cl)c2Cl)n(-c2ccc(CC(=O)N3CCCC(C(=O)O)C3)cc2)n1 (centres unmarked)    0.024
O=C(O)Cc1ccc(-n2nc(-c3cccs3)cc2NC(=O)Nc2cccc(Cl)c2Cl)cc1    3.01

A. CCOC(=O)c1cccc(-n2nc(C(C)(C)C)cc2NC(=O)Nc2ccc(F)cc2)c1
B. CC(C)(C)c1cc(NC(=O)Nc2ccc(Cl)cc2)n(-c2cccc(CN3C(=O)C(=O)N(c4ccccc4)C3=O)c2)n1
Q) Which gives the smaller IC50 number: A or B ? Which one? Tell me its label.
A) A

----------
Reported values of % @ concentration, uM for individual entries
- assayedSystem: phospho p-38 alpha kinase (Homo sapiens, UniProt Q16539)
- Construct: purchased Panvera
- Sequence (Q16539 whole entry): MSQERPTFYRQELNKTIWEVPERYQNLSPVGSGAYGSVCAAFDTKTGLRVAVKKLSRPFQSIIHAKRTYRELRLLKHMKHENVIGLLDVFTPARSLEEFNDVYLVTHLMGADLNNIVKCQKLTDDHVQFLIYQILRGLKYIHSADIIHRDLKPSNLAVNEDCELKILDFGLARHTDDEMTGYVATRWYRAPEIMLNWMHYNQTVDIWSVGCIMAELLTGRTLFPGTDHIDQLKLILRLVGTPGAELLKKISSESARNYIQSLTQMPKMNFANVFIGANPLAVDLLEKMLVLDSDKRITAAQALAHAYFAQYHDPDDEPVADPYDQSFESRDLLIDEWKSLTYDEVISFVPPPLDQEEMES
- testSummary: P-38 alpha kinase assay (spectrophotometric, pyruvate kinase/lactate dehydrogenase coupled)
- Type: biochemical
- conditionNotes: Table 5; @ 10 uM
- Description: In this assay, the oxidation of NADH was continuously measured spectrophometrically. […] The reaction was initiated by adding ATP. The absorption at 340 nm was monitored continuously for up to 4 hours at 30° C. on Polarstar Optima plate reader (BMG). The kinase activity (reaction rate) was calculated from the slope at the time frame from 1.5 h to 2 h. For inhibition determinations, test compounds were incubated with the reaction mixture for ˜5 min before adding ATP to start the reaction. […]
// units = % @ 10; emit number, no label

CC(Cc1ccc(-n2nc(C(C)(C)C)cc2NC(=O)Nc2cccc3ccccc23)cc1)C(=O)O (stereo not shown) [Example 325]    54
CCOC(=O)c1cccc(-n2nc(C(C)(C)C)cc2NC(=O)Nc2cccc3ccccc23)c1 [Example 366]    53
CC(C)(C)c1cc(NC(=O)Nc2cccc3ccccc23)n(-c2cccc(CO)c2)n1 [Example 367]    85
CCOC(=O)c1cccc(-n2nc(C(F)(F)F)cc2NC(=O)Nc2cccc3ccccc23)c1 [Example 336]    27

Q) Record request: % @ concentration, uM value, item CCOC(=O)C(C)Cc1ccc(-n2nc(C(C)(C)C)cc2NC(=O)Nc2ccc(Cl)cc2)cc1 (stereo not shown) [Example 326]
A) 41

Q) Record request: % @ concentration, uM value, item CCOC(=O)c1cccc(-n2nc(-c3ccccc3)cc2NC(=O)Nc2cccc3ccccc23)c1 [Example 328]
A) 68

Q) Record request: % @ concentration, uM value, item CCOC(=O)c1cccc(-n2nc(C)cc2NC(=O)Nc2cccc3ccccc23)c1 [Example 340]
A) 31

Q) Record request: % @ concentration, uM value, item O=C(Nc1ccc(Cl)cc1)Nc1cc(-c2ccccc2)nn1-c1ccc(CO)cc1 [Example 331]
A) 71

Q) Record request: % @ concentration, uM value, item CCOC(=O)C(C)Cc1ccc(-n2nc(C(C)(C)C)cc2NC(=O)Nc2cccc3ccccc23)cc1 (stereo not shown) [Example 324]
A) 40

Q) Record request: % @ concentration, uM value, item CC(C)(O)c1cccc(-n2nc(C(F)(F)F)cc2NC(=O)Nc2cccc3ccccc23)c1 [Example 337]
A) 8

Q) Record request: % @ concentration, uM value, item CC(C)(C)c1cc(NC(=O)Nc2cccc(F)c2F)n(-c2ccc(CO)cc2)n1 [Example 315]
A) 54

----------
- assayedSystem: UniProt:P00519
- Sequence (P00519 229-512): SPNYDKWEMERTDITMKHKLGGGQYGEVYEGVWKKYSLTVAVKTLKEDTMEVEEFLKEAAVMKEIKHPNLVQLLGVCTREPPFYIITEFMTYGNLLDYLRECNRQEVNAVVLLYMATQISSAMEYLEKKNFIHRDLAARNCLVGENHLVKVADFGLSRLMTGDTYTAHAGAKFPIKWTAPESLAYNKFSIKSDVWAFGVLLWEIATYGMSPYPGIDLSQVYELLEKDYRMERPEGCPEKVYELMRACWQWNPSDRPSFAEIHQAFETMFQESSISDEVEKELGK
- testSummary: Abl kinase assay A1
- Type: biochemical
measurementKind: IC50 (nM)
// units = nM; emit number, no label

CN(C)[C@H]1CCN(C(=O)Cc2cccc(-n3nc(C(C)(C)C)cc3NC(=O)Nc3cccc(Cl)c3Cl)c2)C1    1200

# evaluate next
Q) Record request: IC50 value, item CC(C)(C)c1cc(NC(=O)Nc2cccc(Oc3cnccn3)c2)n(-c2cccc(CC(N)=O)c2)n1
A) 63

----------
- assayedSystem: B-Raf(V599E) kinase (Homo sapiens, UniProt P15056, V600E)
- Sequence (P15056 with tags, fused parts or gaps V600E): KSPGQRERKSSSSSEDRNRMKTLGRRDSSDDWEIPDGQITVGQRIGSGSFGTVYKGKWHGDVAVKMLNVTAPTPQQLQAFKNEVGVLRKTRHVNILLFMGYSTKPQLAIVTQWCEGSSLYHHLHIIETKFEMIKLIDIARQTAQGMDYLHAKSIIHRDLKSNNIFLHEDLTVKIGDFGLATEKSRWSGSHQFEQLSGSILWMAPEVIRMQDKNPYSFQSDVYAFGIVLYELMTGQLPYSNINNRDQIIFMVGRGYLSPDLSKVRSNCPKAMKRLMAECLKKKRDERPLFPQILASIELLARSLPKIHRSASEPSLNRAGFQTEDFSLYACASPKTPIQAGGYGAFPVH
- testSummary: B-Raf(V599E) kinase assay B1
- Format: biochemical
- conditionNotes: Method B1; construct 1
measurementKind: IC50 (µM)
// units = µM; emit number, no label

Example entries begin here.
NC(=O)Cc1cccc(-n2nc(C(F)(F)F)cc2NC(=O)Nc2cccc(Oc3cccnc3)c2)c1 [Example 503]    0.13
CC(C)(C)c1cc(NC(=O)Nc2cccc(Oc3cccnc3)c2)n(-c2cccc(CC(N)=O)c2)n1 [Example 500]    0.01

Q) Record request: IC50 value, item CC(C)(C)c1cc(NC(=O)Nc2cccc(-c3cnccn3)c2)n(-c2cccc(CC(N)=O)c2)n1 [Example 509]
A) 0.28

Q) Record request: IC50 value, item CC(C)(C)c1cc(NC(=O)Nc2ccc(F)cc2F)n(-c2ccc(CC(=O)O)cc2)n1 [Example 497]
A) 0.045

----------
- assayedSystem: KDR kinase (Homo sapiens, UniProt P35968, DEL940-989/E990V)
- Sequence (P35968 with tags, fused parts or gaps DEL940-989/E990V): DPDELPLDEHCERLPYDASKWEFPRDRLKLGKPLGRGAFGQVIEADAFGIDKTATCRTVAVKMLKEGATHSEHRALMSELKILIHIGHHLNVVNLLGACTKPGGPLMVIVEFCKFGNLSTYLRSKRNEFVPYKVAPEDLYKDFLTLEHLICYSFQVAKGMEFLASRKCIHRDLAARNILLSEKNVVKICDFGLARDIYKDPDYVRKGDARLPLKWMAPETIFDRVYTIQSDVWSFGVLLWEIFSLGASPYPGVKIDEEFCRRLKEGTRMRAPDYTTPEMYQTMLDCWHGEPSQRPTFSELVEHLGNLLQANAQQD
- testSummary: KDR kinase assay K2
pIC50: −log10 of the molar value.
measurementKind: pIC50

Example entries begin here.
NC(=O)Cc1cccc(-n2nc(C3CCCC3)cc2NC(=O)Nc2ccc(-c3cccc4c3CNC4=O)cc2)c1 [Example 512]    7.54
Cn1c(=O)c(-c2cccc(NC(=O)Nc3cc(C4CCCC4)nn3-c3cccc(CC(N)=O)c3)c2)cc2cncnc21 [Example 514]    7.48

a. C=C1NS(=O)(=O)N(Cc2cccc(-n3nc(C(C)(C)C)cc3NC(=O)Nc3cccc(Cl)c3Cl)c2)C1=O [Example 511]
b. NC(=O)Cc1cccc(-n2nc(-c3cccs3)cc2NC(=O)Nc2cccc(Oc3cccnc3)c2)c1 [Example 502]
Q) Higher pIC50 between a and b ? Which one? Tell me its label.
A) a

----------
- assayedSystem: phospho p-38 alpha kinase (Homo sapiens)
- Construct: purchased Panvera
- testSummary: P-38 alpha kinase assay (spectrophotometric, pyruvate kinase/lactate dehydrogenase coupled)
- Type: biochemical
- conditionNotes: Table 5; assay not named; read-out: uM
measurementKind: IC50 (µM)

Example entries begin here.
O=C(O)Cc1ccc(-n2nc(-c3ccsc3)cc2NC(=O)Nc2cccc(Cl)c2Cl)cc1    5
O=C(Cc1ccc(-n2nc(-c3ccccc3)cc2NC(=O)Nc2cccc(Cl)c2Cl)cc1)NCCO    0.005
O=C(Cc1cccc(-n2nc(-c3ccccc3F)cc2NC(=O)Nc2cccc(Cl)c2Cl)c1)NCC(O)CO (stereo not shown)    0.02
CCOC(=O)c1ccc(-n2nc(C(C)(C)C)cc2NC(=O)Nc2cccc3ccccc23)cc1    0.13
CCOC(=O)CCc1cccc(-n2nc(C(F)(F)F)cc2NC(=O)Nc2ccc(Cl)cc2)c1    0.013

A. O=C(O)CCc1cccc(-n2nc(C(F)(F)F)cc2NC(=O)Nc2ccc(Cl)cc2)c1
B. CCOC(=O)CCc1cccc(-n2nc(C(C)C)cc2NC(=O)Nc2ccc(Cl)cc2)c1
Q) Which gives the smaller IC50 number: A or B ? Which one? Tell me its label.
A) B

1. COc1ccc(-n2nc(C(C)(C)C)cc2NC(=O)Nc2cccc(F)c2F)cc1
2. CC(C)(C)c1cc(NC(=O)Nc2ccc(Cl)cc2)n(-c2cccc(CN3C(=O)C(=O)NS3(=O)=O)c2)n1
Q) Which gives the smaller IC50 number: 1 or 2 ? Which one? Tell me its label.
A) 1
(1: 0.349 µM, 2: 2 µM)

A. CC(O)c1ccc(-n2nc(C(C)(C)C)cc2NC(=O)Nc2cccc3ccccc23)cc1 (stereo not shown)
B. CN(C)C(=O)NCc1cccc(-n2nc(C(C)(C)C)cc2NC(=O)Nc2ccc(Cl)cc2)c1
Q) Higher IC50 between A and B ? Which one? Tell me its label.
A) B

----------
Reported values of inhibition at 10 µM for individual entries
- assayedSystem: KDR kinase (Homo sapiens, UniProt P35968, DEL940-989/E990V)
- testSummary: KDR kinase assay K1
- Assay type: biochemical
- conditionNotes: read-out: Results, % @ concentration μM, Method K1; @ 10 μM
// units = %; emit number, no label

Example entries begin here.
O=C(Cc1cccc(-n2nc(-c3ccccc3F)cc2NC(=O)Nc2cccc(Cl)c2Cl)c1)NC(CO)CO [Example 461]    33
CC(C)(C)c1cc(NC(=O)Nc2cc(F)c(F)cc2F)n(-c2cccc(CC(N)=O)c2)n1 [Example 494]    82

Q) Record request: inhibition at 10 µM value, item O=C(O)Cc1ccc(-n2nc(-c3ccccc3F)cc2NC(=O)Nc2cccc(Cl)c2Cl)cc1 [Example 440]
A) 56

Q) Record request: inhibition at 10 µM value, item NC(=O)Cc1ccc(-n2nc(-c3ccccc3F)cc2NC(=O)Nc2cccc(Cl)c2Cl)cc1 [Example 466]
A) 50

Q) Record request: inhibition at 10 µM value, item CC(C)(C)c1cc(NC(=O)Nc2cccc(Cl)c2Cl)n(-c2ccc(CC(=O)N3CC[C@H](O)C3)cc2)n1 [Example 478]
A) 99
